Test system: 885724-159-R-J1-PDC complex spheroid viability
procedure_summary: Anticancer human tumor 885724-159-R-J1-PDC patient-derived pancreatic adenocarcinoma cell line growth inhibition [GQUAD]
measurement_context: curve of first compound; second compound 1 µM
IC50 less than 2 µM is true; IC50 greater than or equal to 2 µM is false.

COc1cccc2c1C(=O)c1c(O)c3c(c(O)c1C2=O)CC(O)(C(=O)CO)CC3OC1CC(N)C(O)C(C)O1 (stereo not given) + Cc1cnc(CNC(=O)c2c(=O)c3ccc(N4CCCN(C)CC4)nc3n3c2sc2ccccc23)cn1
true
C=CC(=O)N1CCN(c2nc(=O)n(-c3c(C)ccnc3C(C)C)c3nc(-c4c(O)cccc4F)c(F)cc23)C(C)C1 (stereo not given) + CN(C)c1ccc(Nc2c3ccc(NC(=O)CCN4CCCC4)cc3nc3cc(NC(=O)CCN4CCCC4)ccc23)cc1
false
COc1ncnc(C2CC2)c1-c1ncc2cnn(Cc3ccc(-c4nc(C(F)(F)F)cn4C(C)C)cc3)c2n1 + CN(C)c1ccc(Nc2c3ccc(NC(=O)CCN4CCCC4)cc3nc3cc(NC(=O)CCN4CCCC4)ccc23)cc1
false
O=C(NO)c1cnc(N2CCN(S(=O)(=O)c3ccc4ccccc4c3)CC2)nc1 + Cc1[nH]c2ccc(F)cc2c1-c1nc2c3cccnc3c3ncccc3c2[nH]1
true
CC1COCCN1c1cc(-c2ccnn2C)c2ccnc(-c3ccn[nH]3)c2n1 (stereo not given) + CN(C)c1ccc(Nc2c3ccc(NC(=O)CCN4CCCC4)cc3nc3cc(NC(=O)CCN4CCCC4)ccc23)cc1
false
CC1COCCN1c1cc(-c2ccnn2C)c2ccnc(-c3ccn[nH]3)c2n1 (stereo not given) + Cc1[nH]c2ccc(F)cc2c1-c1nc2c3cccnc3c3ncccc3c2[nH]1
false
CCCS(=O)(=O)Nc1ccc(F)c(C(=O)c2c[nH]c3ncc(-c4ccc(Cl)cc4)cc23)c1F + CN(C)c1ccc(Nc2c3ccc(NC(=O)CCN4CCCC4)cc3nc3cc(NC(=O)CCN4CCCC4)ccc23)cc1
false
CC1COCCN1c1cc(C2(S(C)(=N)=O)CC2)nc(-c2ccnc3[nH]ccc23)n1 (stereo not given) + CN(C)c1ccc(Nc2c3ccc(NC(=O)CCN4CCCC4)cc3nc3cc(NC(=O)CCN4CCCC4)ccc23)cc1
false
O=C(NO)c1cnc(N2CCN(S(=O)(=O)c3ccc4ccccc4c3)CC2)nc1 + CN(C)c1ccc(Nc2c3ccc(NC(=O)CCN4CCCC4)cc3nc3cc(NC(=O)CCN4CCCC4)ccc23)cc1
true

----------
Test system: 885724-159-R-J1-PDC complex spheroid viability
procedure_summary: Anticancer human tumor 885724-159-R-J1-PDC cell line growth inhibition [GQUAD];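 further: spheroids exposed to agents for seven days before readout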
measurement_context: curve of first compound; second compound 3.16 µM
pIC50: −log10 of the molar value.
List of pIC50 values.
reported_metric: pIC50

CCc1c2c(nc3ccc(O)cc13)-c1cc3c(c(=O)n1C2)COC(=O)[C@]3(O)CC + Cc1cnc(CNC(=O)c2c(=O)c3ccc(N4CCCN(C)CC4)nc3n3c2sc2ccccc23)cn1
7.48
Nc1ccn(C2OC(CO)C(O)C2(F)F)c(=O)n1 (stereo not given) + CN(C)c1ccc(Nc2c3ccc(NC(=O)CCN4CCCC4)cc3nc3cc(NC(=O)CCN4CCCC4)ccc23)cc1
5.74
COc1ccc([C@@H](O)c2cc(-c3ncnc4cc(N5CCOCC5)ccc34)c(F)cc2Cl)nn1 + Cc1cnc(CNC(=O)c2c(=O)c3ccc(N4CCCN(C)CC4)nc3n3c2sc2ccccc23)cn1
5.54
Cc1[nH]c2ccccc2c1CCNCc1ccc(/C=C/C(=O)NO)cc1 + Cc1cnc(CNC(=O)c2c(=O)c3ccc(N4CCCN(C)CC4)nc3n3c2sc2ccccc23)cn1
7.03
O=C(NO)c1cnc(N2CCN(S(=O)(=O)c3ccc4ccccc4c3)CC2)nc1 + Cc1cnc(CNC(=O)c2c(=O)c3ccc(N4CCCN(C)CC4)nc3n3c2sc2ccccc23)cn1
6.74
COc1ccc([C@@H](O)c2cc(-c3ncnc4cc(N5CCOCC5)ccc34)c(F)cc2Cl)nn1 + CN(C)c1ccc(Nc2c3ccc(NC(=O)CCN4CCCC4)cc3nc3cc(NC(=O)CCN4CCCC4)ccc23)cc1
5.50
CC(C)n1c(=O)n(C)c2cnc3cc(F)c(-c4ccc(OCCCN5CCCCC5)nc4)cc3c21 + CN(C)c1ccc(Nc2c3ccc(NC(=O)CCN4CCCC4)cc3nc3cc(NC(=O)CCN4CCCC4)ccc23)cc1
5.10
CC1COCCN1c1cc(C2(O)CC3CCC(C2)O3)c2cnn(-c3ccn[nH]3)c2n1 (stereo not given) + CN(C)c1ccc(Nc2c3ccc(NC(=O)CCN4CCCC4)cc3nc3cc(NC(=O)CCN4CCCC4)ccc23)cc1
6.54

src = PubChem BioAssay AID2060502
